Kindly state Average Diameter of the Colony for each of the entries shown.
- Test system: Mycosphaerlla melonis
- assay_remarks: Ex vivo mycelial growth inhibition, growth rate method
- Assay type: cell-based
- measurement_setup: 1 mg/mL
Numbers only, in cm.

# compound, Average Diameter of the Colony / cm
records = [
    ("COC(=O)Nc1nc2ccccc2[nH]1", 0.00),
    ("N#Cc1c(Cl)c(Cl)c(Cl)c(C#N)c1Cl", 2.16),
]

Would you be so kind as to report Average Diameter of the Colony for each listed record?
1. COc1ccc(C(=CC(=O)N2CCOCC2)c2ccc(Cl)cc2)cc1OC
2. CO/C=C(/C(=O)OC)c1ccccc1Oc1cc(Oc2ccccc2C#N)ncn1
3. CC12CC1(C)C(=O)N(c1cc(Cl)cc(Cl)c1)C2=O (stereo not shown)
4. O=C(/C=C/c1ccc2c(c1)OCO2)N1CCCCC1
5. CCCNC(=O)/C=C/c1ccc2c(c1)OCO2

RESULT:
1. 2.13
2. 3.93
3. 0.24
4. 0.00
5. 0.58
